Values compiled from patent US9622977B2.

# run-description: in vivo
# study-conditions: Sprague-Dawley, rat, po, 5 mg/kg
recorded-metric: bioavailability (%)
Write the number in % without appending the unit.

I'd like to know its bioavailability. The compound in question is Nc1nc2c(ncn2COCCO)c(=O)[nH]1
100

* * *

# run-description: in vivo
# study-conditions: Sprague-Dawley, rat, po
recorded-metric: AUC
Reply with a number, then the unit it belongs to.

Item under review: Nc1nc2c(ncn2COCCO)c(=O)[nH]1 [Acyclovir] . Reported AUC?
282 ng·h/mL

* * *

# run-description: in vivo
# study-conditions: Sprague-Dawley, rat, po, 5 mg/kg
recorded-metric: Cmax (ng/mL)
# value in ng/mL; strip the unit string

So what's the measured Cmax for this one? Nc1nc2c(ncn2COCCO)c(=O)[nH]1
53.1
